Growth Rate reference
- Test system: Fibroblast
- testName: Incucyte cell viability with human fibroblast; further: unitless GR value; below 1 slowed growth and below 0 cell loss
- Format: toxicity, cell-based
- details: 18 h, 10 µM, compound concentration 10 uM, replicate number 1, timepoint 18 hours
Output: the number by itself.

Cc1nc(C#Cc2cccnc2)cs1.Cl ... 0.37

Query Cc1cc(Cn2nnc3c(-c4ccco4)nc(N)nc32)ccc1N yields Growth Rate of 0.23

Query CN(C)C(=O)Cn1cc(-c2ccc(-c3nnc4ccccn34)cc2)cn1 yields Growth Rate of 0.8

---

- Tested on: Fibroblast
- testName: Incucyte cell viability with human fibroblast; further: unitless GR value; below 1 slowed growth and below 0 cell loss
- Format: toxicity, cell-based
- details: 24 h, 10 µM, compound concentration 10 uM, replicate number 1, timepoint 24 hours
With a cut-off of 0.4, any Growth Rate strictly below it is called TRUE; any Growth Rate meeting it or above is called FALSE.

COc1ncc2cc(C(=O)Nc3cc(C(=O)NCc4cccc(Cl)c4)ccc3Cl)c(=O)[nH]c2n1 ... FALSE

Let us examine a further case.
Consider O=C(c1cc(C2CC2)on1)N(C1CCCCC1)C1CCCCC1 . Does its Growth Rate lie strictly below 0.4?
FALSE

---

- Test system: U2OS
- testName: Incucyte cell viability with U2OS; further: unitless GR value; below 1 slowed growth and below 0 cell loss
- Type: toxicity, cell-based
- details: human, 12 h, 10 µM, compound concentration 10 uM, replicate number 1, timepoint 12 hours
With a cut-off of 0.8, any Growth Rate strictly below it is called YES; any Growth Rate meeting it or above is called NO.

Consider the following illustrative entries.
CCCC(CCC)C(=O)O [VALPROIC ACID] ... NO
CN(c1ncccc1CNc1ccnc(-c2nc3c(F)c(Cl)ccc3[nH]2)n1)S(C)(=O)=O ... YES
COc1cc2nc(N3CCN(C(=O)c4ccco4)CC3)nc(N)c2cc1OC.Cl [PRAZOSIN HYDROCHLORIDE] ... YES
COc1ccc(-n2c(C)c([N+](=O)[O-])c3ccc(O)cc32)cc1 ... YES

Consider CC[C@H]1CN2CCc3cc(OC)c(OC)cc3[C@@H]2C[C@@H]1C[C@H]1NCCc2cc(OC)c(OC)cc21 [EMETINE] . Does its Growth Rate lie strictly below 0.8?
YES

Consider O=C(O)C(F)(F)F.O=C1NC(=O)/C(=C/c2c[nH]c(=O)c(-c3ccc(N4CCNCC4)nc3)c2)S1 . Does its Growth Rate lie strictly below 0.8?
YES

Consider Br.Br.c1ncc(CC2CCNCC2)[nH]1 . Does its Growth Rate lie strictly below 0.8?
NO

---

Growth Rate reference
- Tested on: HEK-293T
- testName: Incucyte cell viability with HEK293T; further: unitless GR value; below 1 slowed growth and below 0 cell loss
- Type: toxicity, cell-based
- details: human, 12 h, 10 µM, compound concentration 10 uM, replicate number 2, timepoint 12 hours

N#Cc1cc2c(OCC(O)CN3CCN(C(c4ccccc4)c4ccccc4)CC3)cccc2[nH]1 (racemic) ... 0.62

Query COc1cc(NC(=O)CCN2CCC(OC(=O)Nc3ccccc3-c3ccccc3)CC2)c(Cl)cc1CNC[C@H](O)c1ccc(O)c2[nH]c(=O)ccc12 [BATEFENTEROL] yields Growth Rate of 0.79

Query CC1(C)SSC(C)(C)[C@@H](NC(=O)[C@@H](N)Cc2ccc(O)cc2)C(=O)NCC(=O)N[C@@H](Cc2ccccc2)C(=O)N[C@H]1C(=O)O.O=C(O)C(F)(F)F yields Growth Rate of 0.85

---

- Test system: HEK-293T
- testName: Incucyte cell viability with HEK293T; further: unitless GR value; below 1 slowed growth and below 0 cell loss
- Format: toxicity, cell-based
- details: human, 6 h, 10 µM, compound concentration 10 uM, replicate number 1, timepoint 6 hours
With a cut-off of -0.1, any Growth Rate strictly below it is called fulfilled; any Growth Rate meeting it or above is called not fulfilled.

Consider the following illustrative entries.
C[C@@H]1CN(Cc2ccc(F)cc2)CCN1C(=O)COc1ccc(Cl)cc1NC(N)=O [BX 471 FREE BASE] ... fulfilled
CN(C(=O)c1ccccc1)c1cc(N(C)c2ccc3c(c2)CCc2ccc(C(=O)NCCN4CCOCC4)cc2C3=O)ccc1F ... fulfilled
C[C@@H]1CC(=O)Nc2cccc(-c3ccc4c(c3)c(-c3cnn(C)c3)nn4C)c2N1 ... not fulfilled

Consider CN1CCC(C(=O)c2cccc(NC(=O)c3c(F)cc(F)cc3F)n2)CC1 . Does its Growth Rate lie strictly below -0.1?
not fulfilled

Consider CC(C)(C)c1cc(NC(=O)Nc2ccc(-c3cn4c(n3)sc3cc(OCCN5CCOCC5)ccc34)cc2)no1 . Does its Growth Rate lie strictly below -0.1?
fulfilled

Consider O=C([O-])[C@H]1O[C@H](OP(=O)([O-])OP(=O)([O-])OC[C@H]2O[C@@H](n3ccc(=O)[nH]c3=O)[C@H](O)[C@@H]2O)[C@H](O)[C@@H](O)[C@@H]1O.[Na+].[Na+].[Na+] . Does its Growth Rate lie strictly below -0.1?
not fulfilled

Consider Cn1cc(-c2ccc3occ(-c4cccc(-c5ccncc5)c4)c3n2)cn1 . Does its Growth Rate lie strictly below -0.1?
fulfilled

Attribution: ChEMBL document CHEMBL5058564
